Source of measurements: patent US6610725B1

Recorded ED50 normalization of hypothermia by entry
Test system: α2-adrenergic receptors
Experiment: Inhibition of the hypothermia induced with guanabenz
Assay type: in vivo
Details: i.p.; normalization
Give a bare numeral; the unit mg/kg is implied.

Compound	ED50 normalization of hypothermia, mg/kg
COC1(C2=NCCN2)COc2ccccc2O1 (single isomer, unassigned; (+)) [(+) RX 821002, 2-methoxy idazoxan]	0.05
CCOC1(C2=NCCN2)COc2c(F)cccc2O1 (stereo not shown) [Dextrorotatory compound of Example 2]	0.16
COC1(C2=NCCN2)COc2c(F)cccc2O1 (stereo not shown) [Dextrorotatory compound of Example 1]	0.02

Now for the compound whose ED50 normalization of hypothermia we want.
Need ED50 normalization of hypothermia of CCOC1(C2=NCCN2)COc2ccccc2O1 (single isomer, unassigned; (+)) [(+) RX 811059, 2-ethoxy idazoxan] , thanks.
0.32

* * *

Tested on: α2-adrenergic receptors
Test: Inhibition of the hypothermia induced with guanabenz
Assay type: in vivo
Conditions: i.p.; inhibition
Measurement Kind: ED50 inhibition of hypothermia (mg/kg)
Kindly answer with a numeric value in mg/kg, unit omitted.

Worked set:
Compound	Measurement Kind	Reading Unit	Observed Result
CCOC1(C2=NCCN2)COc2c(F)cccc2O1 (stereo not shown)	ED50 inhibition of hypothermia	mg/kg	0.02
COC1(C2=NCCN2)COc2c(F)cccc2O1 (stereo not shown)	ED50 inhibition of hypothermia	mg/kg	0.003
COC1(C2=NCCN2)COc2ccccc2O1 (single isomer, unassigned; (+)) [(+) RX 821002, 2-methoxy idazoxan]	ED50 inhibition of hypothermia	mg/kg	0.01

I am curious: what ED50 inhibition of hypothermia value has been reported for CCOC1(C2=NCCN2)COc2ccccc2O1 (single isomer, unassigned; (+)) [(+) RX 811059, 2-ethoxy idazoxan] ?
0.08

* * *

System: α2-adrenergic receptors
Assay: Inhibition of the hypothermia induced with guanabenz
Type: in vivo
Details: i.p.; inhibition
Measurement Kind: Range of active doses, inhibition of hypothermia

Use these answered entries as a reference point.
Compound	Observed Result
CCOC1(C2=NCCN2)COc2c(F)cccc2O1 (stereo not shown)	2.5 to 40000 µg/kg
CCOC1(C2=NCCN2)COc2ccccc2O1 (single isomer, unassigned; (+)) [(+) RX 811059, 2-ethoxy idazoxan]	40 to 10000 µg/kg
COC1(C2=NCCN2)COc2c(F)cccc2O1 (stereo not shown)	2.5 to 40000 µg/kg

Turning to the following compound.
I have this compound here, COC1(C2=NCCN2)COc2ccccc2O1 (single isomer, unassigned; (+)) [(+) RX 821002, 2-methoxy idazoxan] , and I need its recorded Range of active doses, inhibition of hypothermia.
10 to 10000 µg/kg

* * *

Counter-ions that a name gives are not always drawn.
Below: a set of entries, each annotated with reported melting point.
// units = °C; emit number, no label

Compound	Reading Unit	Observed Result
CCCOC1(C2=NCCN2)COc2c(F)cccc2O1 (centres unmarked) (as salt: hydrochloride) [Example 3]	°C	206

Query (compound): C=CCOC1(C2=NCCN2)COc2c(F)cccc2O1 (centres unmarked) (as salt: hydrochloride) [Example 7] ; field requested: melting point
214

Reported melting point, compound CC(C)COC1(C2=NCCN2)COc2c(F)cccc2O1 (centres unmarked) (as salt: hydrochloride) [Example 5] : ____
206

Give the measured melting point of Fc1cccc2c1OCC(OCc1ccccc1)(C1=NCCN1)O2 (centres unmarked) (as salt: hydrochloride) (hydrate or solvate) [Example 8] .
218
